Protein target, amino acids: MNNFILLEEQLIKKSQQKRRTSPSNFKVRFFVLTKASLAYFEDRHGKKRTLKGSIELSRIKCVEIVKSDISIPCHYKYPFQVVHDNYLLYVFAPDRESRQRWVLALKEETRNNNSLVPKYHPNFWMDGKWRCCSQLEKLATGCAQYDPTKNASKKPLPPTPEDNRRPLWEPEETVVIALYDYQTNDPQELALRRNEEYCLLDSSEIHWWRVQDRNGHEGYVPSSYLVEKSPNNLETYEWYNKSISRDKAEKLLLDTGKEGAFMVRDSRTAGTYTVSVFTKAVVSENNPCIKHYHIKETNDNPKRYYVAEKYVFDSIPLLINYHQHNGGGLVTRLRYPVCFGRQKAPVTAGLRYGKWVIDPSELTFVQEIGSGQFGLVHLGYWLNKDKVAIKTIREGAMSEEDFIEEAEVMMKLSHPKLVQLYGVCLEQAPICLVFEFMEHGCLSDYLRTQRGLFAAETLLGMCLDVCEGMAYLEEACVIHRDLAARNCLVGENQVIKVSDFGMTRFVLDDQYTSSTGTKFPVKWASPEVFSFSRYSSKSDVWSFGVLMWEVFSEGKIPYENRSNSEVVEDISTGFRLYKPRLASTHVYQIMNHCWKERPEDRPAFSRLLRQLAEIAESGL
Observation type: IC50 (µM)

The following molecules have reported results that may help.
INSERT INTO assay_data (molecule, observed_measurement) VALUES
  ('N#CC(=CC1CC1)C(=O)N1C[C@@H]2C[C@@H]1[C@@H](n1nc(-c3ccc(C(=O)Nc4cc(F)ccn4)cc3F)c3c(N)ncnc31)C2', 0.229),
  ('C=CC(=O)N1CC2CC1C(n1nc(-c3ccc(C(=O)Nc4cc(C)ccn4)cc3)c3c(N)ncnc31)C2 (stereo not drawn)', 0.176),
  ('C=CC(=O)N1CC2CC1C(n1nc(-c3ccc(Oc4cccc(F)c4)cc3)c3c(N)ncnc31)C2 (stereo not drawn)', 0.307),
  ('C#CC(=O)N1CC2CC1C(n1nc(-c3ccc(C(=O)Nc4ccccn4)cc3)c3c(N)ncnc31)C2 (stereo not drawn)', 0.104),
  ('C=CC(=O)N1CC2CC1C(n1nc(-c3ccc(C(=O)Nc4cc(C#N)ccn4)cc3)c3c(N)ncnc31)C2 (stereo not drawn)', 0.133);

A: C=CC(=O)N1CC2CC1C(n1nc(-c3ccc(C(=O)Nc4cccc(Cl)c4)cc3)c3c(N)ncnc31)C2 (stereo not drawn)
B: C=CC(=O)N1CC2CC1C(n1nc(-c3ccc(Oc4ccccc4)cc3)c3c(N)ncnc31)C2 (stereo not drawn)
C: C=CC(=O)N1CC2CCC1C(n1nc(-c3ccc(Oc4ccccc4)cc3)c3c(N)ncnc31)C2 (stereo not drawn)
D: C=CC(=O)N1C[C@@H]2C[C@@H]1[C@@H](n1nc(-c3ccc(C(=O)Nc4ccccn4)cc3F)c3c(N)ncnc31)C2
Q: Task for the reader: rank each entry by its IC50, from the minimum upward. Answer by listing the labels in the requested order.
Ans: D, C, B, A

* * *

# System: ITK (Homo sapiens)
# Sequence (Q08881 1-620): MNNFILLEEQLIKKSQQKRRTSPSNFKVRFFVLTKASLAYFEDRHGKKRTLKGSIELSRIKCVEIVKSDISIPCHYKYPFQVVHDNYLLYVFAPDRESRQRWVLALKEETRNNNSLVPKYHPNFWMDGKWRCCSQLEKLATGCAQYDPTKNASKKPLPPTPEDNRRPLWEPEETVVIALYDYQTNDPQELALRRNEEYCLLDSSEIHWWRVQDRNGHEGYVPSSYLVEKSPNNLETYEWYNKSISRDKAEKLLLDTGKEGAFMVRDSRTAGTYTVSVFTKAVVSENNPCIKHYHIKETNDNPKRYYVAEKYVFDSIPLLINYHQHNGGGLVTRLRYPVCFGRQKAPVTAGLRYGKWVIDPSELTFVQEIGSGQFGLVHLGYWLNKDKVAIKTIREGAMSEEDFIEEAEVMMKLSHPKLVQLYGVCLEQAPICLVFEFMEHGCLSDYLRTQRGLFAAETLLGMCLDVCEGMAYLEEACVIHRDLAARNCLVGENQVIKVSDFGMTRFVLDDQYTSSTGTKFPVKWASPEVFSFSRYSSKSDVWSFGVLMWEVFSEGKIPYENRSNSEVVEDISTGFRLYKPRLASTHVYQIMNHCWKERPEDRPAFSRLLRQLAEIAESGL
pIC50: −log10 of the molar value.
Observation type: pIC50

a: C=CC(=O)N1CC2CC1C(n1nc(-c3ccc(C(=O)Nc4cc(F)ccn4)cc3)c3c(N)ncnc31)C2 (stereo not shown)
b: N#CC(=CC1CC1)C(=O)N1C[C@H]2CC(n3nc(-c4ccc(C(=O)Nc5ccccn5)cc4)c4c(N)ncnc43)[C@H]1C2 (stereo partly shown)
Q: Param metric = pIC50; output whichever of a , b has the minimum value. Identify your selection by its label.
Ans: b
(b: 6.52, a: 7.27)

* * *

# System: ITK (Homo sapiens)
# Construct: purchased Promega Corporation
# Sequence (Q08881 1-620): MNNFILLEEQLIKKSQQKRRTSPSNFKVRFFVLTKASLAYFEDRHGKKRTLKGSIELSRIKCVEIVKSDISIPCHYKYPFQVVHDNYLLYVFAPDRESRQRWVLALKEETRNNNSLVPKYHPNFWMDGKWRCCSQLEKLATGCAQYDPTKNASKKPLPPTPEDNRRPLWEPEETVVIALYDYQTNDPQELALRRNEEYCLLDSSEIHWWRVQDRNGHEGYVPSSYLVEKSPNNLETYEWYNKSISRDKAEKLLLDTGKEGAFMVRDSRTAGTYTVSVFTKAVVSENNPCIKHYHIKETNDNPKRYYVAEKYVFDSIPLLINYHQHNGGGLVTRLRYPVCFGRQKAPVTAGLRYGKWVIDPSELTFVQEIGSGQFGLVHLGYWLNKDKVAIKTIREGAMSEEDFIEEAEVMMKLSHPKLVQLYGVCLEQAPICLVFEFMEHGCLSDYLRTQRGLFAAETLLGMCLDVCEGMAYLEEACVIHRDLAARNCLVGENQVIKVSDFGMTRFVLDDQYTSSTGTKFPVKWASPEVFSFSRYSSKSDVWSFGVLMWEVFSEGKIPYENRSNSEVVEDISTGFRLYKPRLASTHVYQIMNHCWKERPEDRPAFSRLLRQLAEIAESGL
# Test method notes: Inhibitory activity against ITK (ADP-Glo + ITK Kinase enzyme system kit); selectivity BTK vs. ITK
# Format: biochemical
# Condition details: selectivity for the inhibitory activity of BTK vs. ITK, Equation 1
Observation type: Selectivity (based on IC50)

The following compounds have reported results that may help.
INSERT INTO measurements (compound, system, observed_measurement) VALUES
  ('C#CC(=O)N1CC2CC1C(n1nc(-c3ccc(Oc4ccccc4)cc3)c3c(N)ncnc31)C2 (stereo not drawn)', 'ITK (Homo sapiens)', 32.9),
  ('N#CC(=CC1CC1)C(=O)N1C[C@H]2CC(n3nc(-c4ccc(C(=O)Nc5ccccn5)cc4)c4c(N)ncnc43)[C@H]1C2 (stereo partly drawn)', 'ITK (Homo sapiens)', 76.2),
  ('C=CC(=O)N1CC2CCC1C(n1nc(-c3ccc(Oc4ccccc4)cc3)c3c(N)ncnc31)C2 (stereo not drawn)', 'ITK (Homo sapiens)', 39.1),
  ('C=CC(=O)N1CC2CC1C(n1nc(-c3ccc(C(=O)Nc4cc(F)ccn4)cc3)c3c(N)ncnc31)C2 (stereo not drawn)', 'ITK (Homo sapiens)', 108.2);

a: N#CC(=CC1CC1)C(=O)N1C[C@@H]2C[C@@H]1[C@@H](n1nc(-c3ccc(C(=O)Nc4cc(F)ccn4)cc3F)c3c(N)ncnc31)C2
b: C=CC(=O)N1C[C@@H]2C[C@@H]1[C@@H](n1nc(-c3ccc(C(=O)Nc4ccccn4)cc3F)c3c(N)ncnc31)C2
Q: Could you determine which record has the numerically smaller Selectivity (based on IC50)? Candidates: a and b Kindly give the label for the entry you pick.
Ans: b

* * *

The next entries give measured pIC50 for BTK (Homo sapiens, UniProt Q06187).
pIC50: −log10 of the molar value.
Observation type: pIC50

a: C=CC(=O)N1CC2CC1C(n1nc(-c3ccc(C(=O)Nc4cnccn4)cc3)c3c(N)ncnc31)C2 (stereo not shown) [Ex. 53]
b: N#CCC(=O)N1C[C@@H]2C[C@@H]1[C@@H](n1nc(-c3ccc(C(=O)Nc4ccccn4)cc3)c3c(N)ncnc31)C2 [Ex. 74]
c: C=CC(=O)N1CC2CC1C(n1nc(-c3ccc(C(=O)Nc4cc(C(F)(F)F)ccn4)cc3)c3c(N)ncnc31)C2 (stereo not shown) [Ex. 29]
d: C=CC(=O)N1CC2CC1CC2n1nc(-c2cccc(Oc3ccccc3)c2)c2c(N)ncnc21 (stereo not shown) [Ex. 25]
Q: In this exercise, place the 4 molecules in ascending sequence of their recorded pIC50. # list labels per requested ordering
Ans: b, d, c, a

* * *

# System: ITK (Homo sapiens)
# Construct: purchased Promega Corporation
# Test method notes: Inhibitory activity against ITK (ADP-Glo + ITK Kinase enzyme system kit); selectivity BTK vs. ITK
# Format: biochemical
# Condition details: selectivity for the inhibitory activity of BTK vs. ITK, Equation 1
Observation type: Selectivity (based on IC50)

Solved entries (count: 5):
INSERT INTO measurements (compound, observed_measurement) VALUES
  ('C=CC(=O)N1CC2CC1C(n1nc(-c3ccc(C(=O)Nc4ccccn4)cc3F)c3c(N)ncnc31)C2 (stereo not shown) [Ex. 64]', 44.7),
  ('C=CC(=O)N1CC2CC1C(n1nc(-c3ccc(C(=O)Nc4cc(C#N)ccn4)cc3)c3c(N)ncnc31)C2 (stereo not shown) [Ex. 71]', 147.7),
  ('C=CC(=O)N1CC2CC1C(n1nc(-c3ccc(Oc4ccccc4)cc3)c3c(N)ncnc31)C2 (stereo not shown) [Ex. 1]', 89.9),
  ('C=CC(=O)N1C[C@@H]2C[C@H]1[C@@H](n1nc(-c3ccc(C(=O)Nc4ccccn4)cc3Cl)c3c(N)ncnc31)C2 [Ex. 80]', 26.8),
  ('C=CC(=O)N1CC2CC1C(n1nc(-c3ccc(C(=O)Nc4cccc(Cl)c4)cc3)c3c(N)ncnc31)C2 (stereo not shown) [Ex. 48]', 85.3);

P: C#CC(=O)N1CC2CC1C(n1nc(-c3cccc(Oc4ccccc4)c3)c3c(N)ncnc31)C2 (stereo not shown) [Ex. 15]
Q: C=CC(=O)N1CC2CC1C(n1nc(-c3ccc(Oc4cccc(C(F)(F)F)c4)cc3)c3c(N)ncnc31)C2 (stereo not shown) [Ex. 43]
R: C#CC(=O)N1CC2CC1C(n1nc(-c3ccc(C(=O)Nc4ccccn4)cc3)c3c(N)ncnc31)C2 (stereo not shown) [Ex. 4]
Q: Order field: Selectivity (based on IC50) | Direction: descending (largest first) List labels; respect the requested ordering.
Ans: Q, P, R
(Q: 86.4, P: 58.3, R: 37.1)
